- experimentalTarget: Recombinant Human Siglec-3/CD33 protein (His-CD33) (Homo sapiens (Human))
- Sequence (P20138 18-259): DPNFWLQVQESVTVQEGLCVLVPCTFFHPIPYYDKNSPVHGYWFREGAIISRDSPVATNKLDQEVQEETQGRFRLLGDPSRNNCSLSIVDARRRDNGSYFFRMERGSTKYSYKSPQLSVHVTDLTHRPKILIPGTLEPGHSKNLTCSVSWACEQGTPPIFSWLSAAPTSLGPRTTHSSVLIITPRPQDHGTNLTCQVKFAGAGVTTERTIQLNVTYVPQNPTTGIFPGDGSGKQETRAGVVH
- methodNotes: Differential scanning fluorimetry (DSF) thermal shift assay
- Format: binding
- conditionContext: thermal melt shift of 0.5 μM CD33 protein with 50 μM compound
experimentalEndpoint: DSF (dTmD)

Some solved entries appear below for comparison.
For Recombinant Human Siglec-3/CD33 protein (His-CD33) (Homo sapiens (Human)), give DSF (dTmD) of the listed compound: CC(=O)N[C@H]1[C@H]([C@H](O)[C@H](O)CNC(=O)c2cc(C)c(O)c(C)c2)O[C@@](CCN2C(C)CCC23CCN(C(=O)OC(C)(C)C)C3)(C(=O)O)C[C@@H]1O (stereo partly drawn) 10.0

Param request: DSF (dTmD) | system Recombinant Human Siglec-3/CD33 protein (His-CD33) (Homo sapiens (Human)) | item "CC(=O)N[C@H]1[C@H]([C@H](O)[C@H](O)CNC(=O)c2cc(C)c(O)c(C)c2)O[C@@](CCN2CCOC[C@]23CCN(C(=O)OC(C)(C)C)C3)(C(=O)O)C[C@@H]1O" 5.12

Give reported DSF (dTmD) for "CC(=O)N[C@H]1[C@H]([C@H](O)[C@H](O)CNC(=O)c2cc(C)c(O)c(C)c2)O[C@@](CCN2CCN(C(C)=O)C[C@@]23CCN(C(=O)OC(C)(C)C)C3)(C(=O)O)C[C@@H]1O" (Recombinant Human Siglec-3/CD33 protein (His-CD33) (Homo sapiens (Human))) 12.3

Give measured DSF (dTmD) for "C=C[C@@H]1CN(C(=O)OC(C)(C)C)C[C@]1(C)NCC[C@]1(C(=O)O)C[C@H](O)[C@@H](NC(C)=O)[C@H]([C@H](O)[C@H](O)CNC(=O)c2cc(C)c(O)c(C)c2)O1" (Recombinant Human Siglec-3/CD33 protein (His-CD33) (Homo sapiens (Human))). 7.4

With Recombinant Human Siglec-3/CD33 protein (His-CD33) (Homo sapiens (Human)) as the test system, provide measured DSF (dTmD) for this compound: "C=CC[C@@]1(NCC[C@]2(C(=O)O)C[C@H](O)[C@@H](NC(C)=O)[C@H]([C@H](O)[C@H](O)CNC(=O)c3cc(C)c(O)c(C)c3)O2)CCN(C(=O)OC(C)(C)C)C1" 8.4

// output DSF (dTmD); input CC(=O)N[C@H]1[C@H]([C@H](O)[C@H](O)CNC(=O)c2cc(C)c(O)c(C)c2)O[C@@](CCN2CCOC[C@@]23CCN(C(=O)C2CCCCC2(F)F)C3)(C(=O)O)C[C@@H]1O (stereo partly drawn) ; system Recombinant Human Siglec-3/CD33 protein (His-CD33) (Homo sapiens (Human)) 12.0

a. CC(=O)N[C@H]1[C@H]([C@H](O)[C@H](O)CNC(=O)c2cc(C)c(O)c(C)c2)O[C@@](CCN2CCOCC2c2cccnc2)(C(=O)O)C[C@@H]1O (stereo partly drawn)
b. CC(=O)N[C@H]1[C@H]([C@H](O)[C@H](O)CNC(=O)c2ccc3occc3c2)O[C@@](CCN2CCOC[C@@]23CCN(C(=O)OC(C)(C)C)C3)(C(=O)O)C[C@@H]1O [A-137]
c. CC(=O)N[C@H]1[C@H]([C@H](O)[C@H](O)CNC(=O)c2cc(C)c(O)c(C)c2)O[C@@](CCN2CCOC[C@@]23CCN(C(=O)C(C)(C)C)C3)(C(=O)O)C[C@@H]1O
Ranking field: DSF (dTmD); order: falling. Hello, could you send the labels back in the order asked? Thank you. b, c, a
(b: 12.7, c: 8.25, a: 1.1)
